# Test system: DMS 114 small cell lung
# test-protocol: NCI tumour cell line growth inhibition, 48 h
Collected TGI values appear next to each entry.

- compound: "CCCc1cc(-c2ccc(-c3cc(CCC)c(C=O)[nH]3)s2)[nH]c1C=O"
  TGI: "65 µM"
- compound: "O=C1/C(=C\\c2ccccc2)c2ccccc2N1/N=C\\c1ccccc1"
  TGI: "> 100 µM"
- compound: "O=C(NC1C=Nc2ccccc2NC1=O)c1ccccc1Cl (stereo not given)"
  TGI: "> 100 µM"
- compound: "NC(=O)N/N=C(\\CCC(=O)N(Cc1ccccc1)Cc1ccccc1)CC(=O)c1ccc(F)cc1"
  TGI: "> 100 µM"
- compound: "OC1c2ccccc2C2C(O)c3ccccc3C12 (stereo not given)"
  TGI: "> 100 µM"
- compound: "CCOC(=O)/C=C1\\Oc2ccccc2C1(C)O (stereo not given)"
  TGI: "> 100 µM"
- compound: "COC1(Cc2ccccc2)C(=O)c2ccccc2N1C(C)=O (stereo not given)"
  TGI: "> 100 µM"
- compound: "CC#Cc1c(C#CC)c(OC)c2c(c1OC)C(=O)c1ccccc1C2=O"
  TGI: "89 µM"

Fill in the blank: the reported TGI of Cc1cc(C)nc(NS(=O)(=O)c2ccc(NC(=O)c3cccc4c(N)c5ccccc5nc34)cc2)n1 is ____.
> 100 µM

Fill in the blank: the reported TGI of NNC(=S)N/N=C(/C(=O)Nc1ccc([N+](=O)[O-])cc1)c1nc2ccc([N+](=O)[O-])cc2[nH]c1=O is ____.
> 100 µM

====

# System: M14 melanoma
# test-protocol: NCI tumour cell line growth inhibition, 48 h; in the data active = GI50 below about 0.43 µM; inactive = the rest
Respond using exactly one of the listed classes: active, inactive

Examples with answers:
- compound: "COC(=O)Nc1nc2ccc(S(=O)(=O)c3ccc(NC(=O)Nc4cc(C(F)(F)F)ccc4F)cc3)cc2[nH]1"
  qualitative-label: "inactive"
- compound: "O=CN1N=C(c2ccc(Nc3ccnc4cc(Cl)ccc34)cc2)CC1c1ccc(Cl)cc1 (stereo not given)"
  qualitative-label: "inactive"
- compound: "O=c1[nH]nc(-c2ccccc2)c2c(-c3ccccc3)onc12"
  qualitative-label: "active"

Per the records of this test, what outcome belongs to COc1ccc(CN=C(N)N=C(N)N)cc1OC ?
inactive

Per the records of this test, what outcome belongs to O=C(Cn1c2ccccc2c2ccncc21)N/N=C\c1ccc2ccccc2c1 ?
inactive

====

The next entries give measured GI50 for CCRF-CEM leukemia.

Take a look at these entries with their results.
- compound: "Oc1ccc(O)c2c1C1(Cl)C(Cl)=C(Cl)C2(Cl)C1(Cl)Cl"
  GI50: "4.14 µM"
- compound: "CCC(=O)c1c(C(F)(F)F)n([O-])c2ccccc2[n+]1=O"
  GI50: "0.621 µM"

State its GI50 on CCRF-CEM leukemia: CNc1ncc2cc(Oc3ccc(F)cc3F)c(=O)n(C)c2n1
> 25 µM

State its GI50 on CCRF-CEM leukemia: CCCCN(CCCC)CCC(O)c1cc2ccc(C(F)(F)F)cc2c2cc(C(F)(F)F)ccc12 (configuration not stated)
2.96 µM

State its GI50 on CCRF-CEM leukemia: O=C1NC(SCc2ccc(F)cc2)=N/C1=C/c1cccc(OCc2ccc(Cl)cc2)c1
64.2 µM

State its GI50 on CCRF-CEM leukemia: O=c1[nH]nc(-c2ccccc2)c2c(-c3ccccc3)onc12
3.69 µM

State its GI50 on CCRF-CEM leukemia: Cc1ccc(-c2c3c(N)c4c(nc3nc3c2c(C)nn3-c2ccccc2)CCC4)cc1
2.54 µM

State its GI50 on CCRF-CEM leukemia: CCc1nc(N)nc(N)c1C#CC(C)c1cc(-c2ccnc(C)c2)c2oc(C)nc2c1 (configuration not stated)
< 0.01 µM

====

# System: UACC-62 melanoma
# test-protocol: NCI tumour cell line growth inhibition, 48 h; in the data active = GI50 below about 0.43 µM; inactive = the rest
Respond using exactly one of the listed classes: yes = active, no = inactive

Examples with answers:
- molecule: "CCc1c2c(nc3ccc(OCc4ccc(B5OC(C)(C)C(C)(C)O5)cc4)cc13)-c1cc3c(c(=O)n1C2)COC(=O)[C@]3(O)CC"
  qualitative-label: "yes"
- molecule: "NCCSC(C[N+](=O)[O-])c1ccccc1Cl (stereo not drawn)"
  qualitative-label: "no"
- molecule: "COc1ccc2c(c1)C=C1CSCC3=Cc4cc(OC)ccc4OC13O2"
  qualitative-label: "no"
- molecule: "CC1=NN(C(=O)c2nn(-c3ccc(Cl)cc3)cc2O)C(=O)C1"
  qualitative-label: "no"
- molecule: "Cc1ccccc1NC(=O)c1cc2ccccc2cc1O"
  qualitative-label: "no"

# ---- query molecule ----
Per the records of this test, what outcome belongs to CCCCN(CCCC)CCC(O)c1cc2ccc(C(F)(F)F)cc2c2cc(C(F)(F)F)ccc12 (stereo not drawn) ?
no

====

# Tested on: CCRF-CEM leukemia
# test-protocol: NCI tumour cell line growth inhibition, 48 h
Collected TGI values appear next to each entry.

Take a look at these entries with their results.
- molecule: "Nc1ccc(C2=Nc3ccccc3SC(c3ccccc3O)C2)cc1 (stereo not drawn)"
  target-or-test-system: "CCRF-CEM leukemia"
  TGI: "32.5 µM"
- molecule: "Clc1ccc(/C=C/c2nc(Cl)c(-c3ccc(Cl)cc3)c(Cl)n2)cc1"
  target-or-test-system: "CCRF-CEM leukemia"
  TGI: "84.8 µM"
- molecule: "COc1ccc(C2C(Cl)C(=O)N2NC(=O)c2ccccc2O)cc1OC (stereo not drawn)"
  target-or-test-system: "CCRF-CEM leukemia"
  TGI: "> 100 µM"
- molecule: "CCCCN(CCCC)CCC(O)c1cc2ccc(C(F)(F)F)cc2c2cc(C(F)(F)F)ccc12 (stereo not drawn)"
  target-or-test-system: "CCRF-CEM leukemia"
  TGI: "8.96 µM"
- molecule: "NC(=S)N/N=C/c1ccc(OC(=O)COc2ccccc2Cl)cn1"
  target-or-test-system: "CCRF-CEM leukemia"
  TGI: "> 65.8 µM"
- molecule: "O=C1COCCN1c1ccc(NCc2cn(C(=O)c3ccc(Cl)cc3)c3ccccc23)cc1"
  target-or-test-system: "CCRF-CEM leukemia"
  TGI: "> 100 µM"
- molecule: "COc1cccc(C(=O)N[C@@H]2[C@H](O)[C@@H](CO)O[C@H]2n2cnc3c(N)ncnc32)c1"
  target-or-test-system: "CCRF-CEM leukemia"
  TGI: "> 100 µM"
- molecule: "C/C([O-])=C(/c1nc(-c2ccc([N+](=O)[O-])o2)no1)[n+]1cc(C)ccc1C"
  target-or-test-system: "CCRF-CEM leukemia"
  TGI: "> 100 µM"
- molecule: "O=[N+]([O-])c1ccc2[nH]c(O)c(N=NC(=S)Nc3ccccc3)c2c1"
  target-or-test-system: "CCRF-CEM leukemia"
  TGI: "20 µM"
- molecule: "CCCCCCC(=O)OC[n+]1cccc(-c2c(COC(=O)NC(C)C)c(COC(=O)NC(C)C)c3n2CCC3)c1"
  target-or-test-system: "CCRF-CEM leukemia"
  TGI: "> 66.5 µM"

Fill in the blank: the reported TGI of Cc1ccc([N+](=O)[O-])c2c(NCCC[N+](C)(C)[O-])ccnc12 is ____.
> 100 µM

Fill in the blank: the reported TGI of CCOC(=O)/C(=N/Nc1ccc(Cl)cc1)N1C(=S)C=C(C)NN(C)C1=S is ____.
> 100 µM

Fill in the blank: the reported TGI of CC1=C(C)C(=O)C(C2=C(C3=CC(=O)C(C)=C(C)C3=O)C(=O)c3ccccc3C2=O)=CC1=O is ____.
7.22 µM

====

# System: LOX IMVI melanoma
# test-protocol: NCI tumour cell line growth inhibition, 48 h
Collected TGI values appear next to each entry.

- compound: "O=C1OC(OC/C(Br)=C(/Br)COC2OC(=O)C(Cl)=C2Cl)C(Cl)=C1Cl (stereo not given)"
  reading: "8.36 µM"
- compound: "Cc1cn2c(/C=C3/C(=O)Nc4ccccc43)c(C)nc2s1"
  reading: "70.4 µM"
- compound: "COc1ccc(OC)c(/C=N/N=C2\\C(=O)Nc3c(Cl)cc(Cl)cc32)c1"
  reading: "> 100 µM"
- compound: "CC(=O)Nc1nnc(S(=O)(=O)NC(=S)Nc2ccc(Cl)cc2)s1"
  reading: "> 100 µM"
- compound: "COC(=O)[C@@H]1[C@H](O)CC[C@H]2[C@@]1(C)CC[C@@H](C)[C@]2(COC(C)=O)CC(=O)c1ccoc1"
  reading: "> 50 µM"
- compound: "O=C(Cn1c2ccccc2c2ccncc21)N/N=C\\c1ccc2ccccc2c1"
  reading: "> 100 µM"
- compound: "[O-][n+]1c2cc(CN3CCOCC3)c(CN3CCOCC3)cc2[n+]([O-])c2c(O)cccc21"
  reading: "16.3 µM"
- compound: "Nc1ccc(C2=Nc3ccccc3SC(c3ccccc3O)C2)cc1 (stereo not given)"
  reading: "> 100 µM"

Fill in the blank: the reported TGI of CC#Cc1c(C#CC)c(OC)c2c(c1OC)C(=O)c1ccccc1C2=O is ____.
> 100 µM

Fill in the blank: the reported TGI of CC1=C(C(=O)NC(C)(C)C)CC(C(=O)NC(C)(C)C)C(C)N1 (stereo not given) is ____.
> 100 µM

Fill in the blank: the reported TGI of COC(=O)Nc1nc2ccc(S(=O)(=O)c3ccc(NC(=O)Nc4cc(C(F)(F)F)ccc4F)cc3)cc2[nH]1 is ____.
> 25 µM

Reference source: PubChem BioAssay (NCI)
